Origin of the recorded values: PubChem BioAssay (NCATS)

experiment: P-glycoprotein substrates identified in KB-3-1 adenocarcinoma cell line, qHTS therapeutic library screen (AID 1346986); details: KB-3-1 parental cells viability, CellTiter-Glo, 72 h; series mostly up to 44.5 µM; further: nearly all actives have a fitted effect of over 60% in size;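 further: potency means the concentration at half of the fitted maximal effect; potency is for cytotoxicity meaning loss of cell viability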
Results filed as inconclusive are left out. Activity calls are given as the source filed them. The call rests on the fitted dose curve; in most records, active means well fitted inhibition curve with a large enough effect; inconclusive means small, poorly fitted or top-dose-only effect; inactive means no such curve, though single readings can be large or run the other way.
assayEndpoint: Potency

Consider the reported Potency for these molecules:
molecule	Potency
N#Cc1c2nc3ccccc3nc2n2ccc(NC(=O)c3cccs3)cc12	23100 nM (active)
CC(C)CN(CC(=O)N(CCCN1CCCC1=O)CC(N)=O)C(=O)CNCCc1ccccc1F	inactive
CN1CCC(c2c(O)cc(O)c3c(=O)cc(-c4ccccc4Cl)oc23)C1CO (stereo not given)	920 nM (active)
COc1cc2ncnc(Nc3ccc(NC(=O)c4ccccc4)cc3)c2cc1OC	20600 nM (active)
Cc1cc(Nc2nc(NC(C)c3ccc(F)cc3)c(C#N)cc2F)n[nH]1 (stereo not given)	164 nM (active)

Would you mind telling me what Potency value was observed for O=S(=O)(/N=C/c1c(O)ccc2ccccc12)c1cccs1 ?
inactive

Same question for CCOC(=O)N1CCN(C(=O)Cn2sc3nc(C)cc(C)c3c2=O)CC1 please.
inactive

Same question for [2H]C([2H])([2H])C(OC(=O)[C@H](C)N[P@](=O)(OC[C@H]1O[C@@H](n2ccc(=O)[nH]c2=O)[C@](C)(F)[C@@H]1O)Oc1ccccc1)C([2H])([2H])[2H] please.
inactive

Same question for O=C1NC(=O)/C(=C\c2ccc3nccc(-c4ccncc4)c3c2)S1 please.
1160 nM (active)

Same question for CCOC(=O)c1cc2ccc(O)cc2oc1=O please.
inactive

###

system: AS120; assay: qHTS profiling for inhibitors of Plasmodium falciparum proliferation (AID 504749); further: nearly all actives have a fitted effect of over 60% in size; settings: P. falciparum in erythrocytes, SYBR Green DNA, 72 h; series mostly up to 28.7 µM
Records with an inconclusive call do not appear. Activity calls are given as the source filed them. Calls follow the shape of the dose curve; as a rule, active = well fitted inhibition curve with a large enough effect; inconclusive = small, poorly fitted or top-dose-only effect; inactive = flat fitted curve, though single readings scatter.
Allowed answers: true (1) for active, false (0) for inactive

How did this test come out for O=C1c2cccc3c2[C@@H](CCC3)CN1[C@@H]1CN2CCC1CC2 ?
false (0)

Same question for COC(=O)[C@@H]1[C@@H]2C[C@H]3c4[nH]c5ccccc5c4CCN3C[C@@H]2CC[C@@H]1O please.
false (0)

Same question for C/C=C1\C2C=C(C)CC1(N)c1ccc(=O)[nH]c1C2 (stereo unspecified) please.
false (0)

Same question for CCCCC(=O)N(Cc1ccc(-c2ccccc2-c2nn[nH]n2)cc1)C(C(=O)O)C(C)C (stereo unspecified) please.
false (0)

Same question for CC(C)C[C@@H](NC(=O)[C@H](Cc1ccccc1)NC(=O)c1cnccn1)B(O)O please.
true (1)

Same question for O=C(CC1NCCC[C@H]1O)Cn1cnc2cc(Br)c(Cl)cc2c1=O (stereo partly specified) please.
true (1)

###

biological target: Phospholipid hydroperoxide glutathione peroxidase GPX4 (Homo sapiens) (UniProt P36969); experiment: Primary qHTS Assay for Inhibitors of Recombinant Selenoprotein Glutathione Peroxidase 4 (GPX4) (AID 1845192); conditions: recombinant GPX4, GR-coupled NADPH fluorescence, 15 min; series mostly up to 50 µM; further: nearly all actives have a fitted effect of over 65% in size
Sequence (P36969 whole entry, looked up): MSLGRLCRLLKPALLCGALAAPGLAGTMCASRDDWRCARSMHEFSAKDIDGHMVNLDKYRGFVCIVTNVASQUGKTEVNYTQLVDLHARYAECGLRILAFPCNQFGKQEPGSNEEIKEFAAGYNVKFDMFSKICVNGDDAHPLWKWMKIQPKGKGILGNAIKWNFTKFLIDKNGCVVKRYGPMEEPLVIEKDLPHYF
Inconclusive results are not listed. The source made the active and inactive calls. Calls follow the shape of the dose curve; as a rule, active = well fitted inhibition curve with a large enough effect; inconclusive = small, poorly fitted or top-dose-only effect; inactive = flat fitted curve, though single readings scatter.
Allowed answers: 1 for active, 0 for inactive

How did this test come out for O=C1NC(=O)/C(=C/c2ccc3nccc(-c4ccncc4)c3c2)S1 ?
0

Same question for CC(=O)Nc1nc2c(Oc3cc(-c4ccc(C(F)(F)F)cc4)ncn3)cccc2s1 please.
0

Same question for Fc1ccc(C2CCNC[C@H]2COc2ccc3c(c2)OCO3)cc1 (stereo not given in full) please.
0

Same question for C[C@@H]1COCCN1c1cc(C2(S(C)(=N)=O)CC2)nc(-c2ccnc3[nH]ccc23)n1 (stereo not given in full) please.
1

Same question for CC1CCN(c2cc(NC(=O)c3ccccc3)ncn2)CC1 please.
0

Same question for COc1cc2nc(-c3cc(F)ccc3O)nc(N[C@@H]3CNC[C@H]3C(C)(C)O)c2cc1OC please.
0

Same question for C=C1C(=O)O[C@H]2[C@H]1[C@@H](OC(=O)/C(C)=C\C)C[C@]1(C)O[C@@H]1[C@H]1O[C@H]1C(=C)[C@H]2O please.
0

Same question for C[C@@H]1CCNC(=O)c2cc3ccc(C(=O)Nc4nc5ccccc5n4CCCN(C)C)cc3n21 please.
0

Same question for C#Cc1cccc(Nc2ncnc3cc4c(cc23)OCCOCCOCCO4)c1 please.
0

Same question for N[C@H](Cc1ccccc1)C(=O)O please.
0

Same question for CC/C(=C(\c1ccc(O)cc1)c1ccc(OCCNC)cc1)c1ccccc1 please.
0

Same question for CCCCOc1ccc(-c2cncc(C(=O)NCc3cccnc3N3CCOCC3)c2)cc1Cl please.
0

Same question for CNS(=O)(=O)c1ccc2c(c1)/C(=C/c1[nH]c3c(c1CCCN1CCN(C)CC1)CCCC3)C(=O)N2 please.
0

Same question for c1ccc(Cn2c(-c3ccc(OCC(C4CCNCC4)n4c(-c5ccccc5)nc5ccccc54)cc3)nc3ccccc32)cc1 (stereo not given) please.
0

Same question for CC(=O)N1c2ccc(-c3ccc(C(=O)O)cc3)cc2C(Nc2ccc(Cl)cc2)CC1C (stereo not given) please.
0

Same question for CC(CCC1(O)OC2CC3C4CC=C5CC(O[C@@H]6O[C@H](CO)[C@@H](O[C@@H]7O[C@H](CO)[C@@H](O)[C@H](O)[C@H]7O)[C@H](O)[C@H]6O[C@@H]6O[C@@H](C)[C@H](O)[C@@H](O)[C@H]6O)CCC5(C)C4CCC3(C)C2C1C)CO[C@@H]1O[C@H](CO)[C@@H](O)[C@H](O)[C@H]1O (stereo not given in full) please.
0

Same question for OCCn1cc(-c2ccc3c(c2)CC/C3=N\O)c(-c2ccncc2)n1 please.
0

Same question for CNC(=O)c1c(C)oc2cc(Oc3ncnc4cc(OC)c(OC)cc34)ccc12 please.
0

Same question for N#C/C(=C\c1ccc(O)c(O)c1)C(=O)Nc1ccccc1 please.
0

Same question for CC[N+](CC)(CC)CC please.
0

Same question for OCC(Cc1ccccc1)Nc1nc(Oc2ccc3c(c2)CCC3)nc2c1ncn2Cc1ccc(-c2ccccc2)cc1 (stereo not given) please.
0

Same question for O=Nc1c(-c2c(O)[nH]c3ccccc23)[nH]c2ccccc12 please.
0

Same question for CC1CCN(C(c2ccc(F)cc2)c2ccc(C(C)C(=O)O)cc2-c2ccc(C(F)(F)F)cc2)CC1 (stereo not given) please.
0

Same question for CCCCc1nc(C)c(CC(=S)N(C)C)c(=O)n1Cc1ccc(-c2ccccc2-c2nn[nH]n2)cc1 please.
0

Same question for OCC(CO)(CO)NCC(O)Cn1c2ccc(Cl)cc2c2cc(Cl)ccc21 (stereo not given) please.
0

Same question for CCC(=O)c1cc(-c2ccc(Cl)cc2)n(-c2ccc(S(N)(=O)=O)cc2)c1C please.
0

Same question for CC1CCCC(SCC(O)C(=O)O)CC(=O)c2c(O)cc(O)cc2CC(=O)O1 (stereo not given) please.
0

Same question for Cc1cc(CS(=O)(=O)c2ccccc2)cc(OCc2ccc(CN3CCC[C@@H]3CO)cc2)c1 please.
0

Same question for CC[C@@H](C)[C@H]1C(=O)O[C@H](C(C)C)C(=O)N(C)[C@@H](C(C)C)C(=O)O[C@H](C(C)C)C(=O)N(C)[C@@H](C(C)C)C(=O)O[C@H](CC(C)C)C(=O)N1C please.
0

Same question for CC(C)n1cnc2c(Nc3cccc(Cl)c3)nc(NCCO)nc21 please.
0

Same question for O=C(Nc1ccc(F)cc1)N1CCc2ccccc2C1c1ccc(C(F)(F)F)cc1 (stereo not given) please.
0

Same question for CNc1cc(OC)c(C(=O)N[C@@H]2CCN(Cc3ccccc3)[C@@H]2C)cc1Cl please.
0

Same question for CC1OC2O[C@H]3[C@@H](OCC(O)[C@H]3O)OC(=O)C34CCC(C)(C)CC3C3=CCC5C6(C)CC(O)C(OC7OC(CO)C(O)C(O)C7O[C@@H]7OC[C@H](OC(=O)CC(C)(O)CC(=O)OC1C(OC1OCC(O)C(O)C1O)C2O)[C@@H](O)[C@H]7O)C(C)(CO)C6CCC5(C)C3(C)CC4 (stereo not given in full) please.
0

Same question for CNC(=O)c1cccc2cc(Oc3ccnc4cc(OCC5(N)CC5)c(OC)cc34)ccc12 please.
0

Same question for CC1(C)SC2C(NC(=O)[C@H](NC(=O)N3CCNC3=O)c3ccccc3)C(=O)N2C1C(=O)O (stereo not given in full) please.
0
